This collection of values is drawn from paper PMC4931477.

# ASSAYED SYSTEM: OBP14 (odorant binding protein 14) (Apis mellifera)
# Construct: recombinant, bacterial expression, purified by chromatography and Superose-12 gel filtration; covalently immobilized via PBSE linker on rGO FET gate
# Sequence (A0A8U0WQC3 17-135): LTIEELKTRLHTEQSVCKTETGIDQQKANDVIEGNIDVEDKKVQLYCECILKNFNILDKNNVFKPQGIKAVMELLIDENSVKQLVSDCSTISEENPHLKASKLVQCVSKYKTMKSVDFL
# EXPERIMENT NOTES: rGO-FET biosensor, real-time kinetics (koff/kon), source-drain current
pKd: −log10 of the molar value.
REPORTED METRIC: pKd

> print(dat)
       smiles.structure  test.result
1  COc1cc(CC(=O)O)ccc1O         5.15
